assay: Components of the Cytosolic LPS Sensing Pathway: Gene Identification via Genome-wide siRNA Screen; details: RAW264.7 macrophages, IL-1a HTRF, actives lie on both sides, screened at 100 nM (by protocol), cells primed 5 h with Pam3CSK4 first;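 further: robust z of the log signal after scaling to non-targeting control siRNA wells of the plate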
The whole screen tested about 53,000 sequences, of which about 3,700 (7%) were called active. The entries come from a sample that favours actives as a whole.
Exercise: for every item that follows, state its recorded z-score.
The reply should be a number, written without any unit.

Q) Tell me measured z-score for GGAUGCUGUAACACUUUAUTT against Bcl6 please.
A) 3.31

Q) # return recorded z-score for entry GGGCUAUUGCAUCUUUUAATT against Olfr711
A) -0.0884

Q) For the sequence CCCAUCCAAUAAGCAAUUGTT against Lpcat2 , give its reported z-score.
A) -0.696

Q) Answer with the recorded z-score of GCCGUGCAACACUUCUACATT against Esrrb only.
A) -0.471

Q) Supply measured z-score of GGACUUCGACAAACUGAAGTT against Zfp532 in your reply.
A) 0.547

Q) Supply reported z-score belonging to this sequence: GGACUUUGUACAUUGUUUUTT against Actb
A) 2.2

Q) Respond only with z-score recorded for GGCUGAAGUUCAUGAUGGCTT against Cd209d
A) 1.7

Q) Return z-score for the following sequence: GGGUUCAAUAACCACAUCATT against Ttc13
A) -2.13

Q) Report z-score for GGCCUCAAGAAUGUAACAGTT against Psmf1
A) -1.07

Q) Indicate its recorded z-score; the sequence in question is CCGCUUUCGGCAAGUAUGGTT against Rbmxl2
A) 1.64

Q) Complete the entry with z-score for GCUCUGCUCUUCUGAAGCATT against Dohh
A) -2.42

Q) Identify measured z-score corresponding to GGUAAGGUUACAGCACUGATT against Chac2
A) -0.489

* * *

test: Components of the Cytosolic LPS Sensing Pathway: Gene Identification via Genome-wide siRNA Screen; details: RAW264.7 macrophages, IL-1a HTRF, actives lie on both sides, screened at 100 nM (by protocol), cells primed 5 h with Pam3CSK4 first;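 further: robust z of the log signal after scaling to non-targeting control siRNA wells of the plate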
Among all 53,000 sequences or so, about 3,700 (7%) were called active.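 How the source made its calls: active means gene knockdowns whose robust z-score for IL-1 alpha signal is at least 2 or at most -2, so actives lie on both sides; inactive means the rest.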 This excerpt belongs to a sample that is enriched for actives.
Thanks in advance; please answer with one of these: active, inactive

Q) Record request — test call for GGGAUUUUGAGUUUGAUGCTT against Zc3h10
A) inactive

Q) Any idea what this test logged for CCGCUGCAUAGCAUGUACATT against Dusp23 ?
A) inactive

Q) How did this test come out for GGCUUACCUACAACAAGUUTT against Ccnt1 ?
A) active

Q) So what was the verdict on GCGACAACUGUGAUAUACCTT against Liph in this test?
A) inactive

Q) Entry GGUAGAUGAUAAUUUCACUTT against 4930595M18Rik : call = ?
A) inactive

Q) Please share the test call associated with GCAACAGUGAAAUAGCACATT against Krit1 .
A) inactive

Q) Kindly provide the recorded test outcome for the following sequence: CCCUAUAAAGAGAAAUUGGTT against Zfp663
A) inactive

Q) Which outcome was assigned to CGACUGGGUCUUAUGUUUATT against Tas2r121 in this test?
A) inactive

Q) What did the test return for GCUUCAACAUGCUUUGUUUTT against A430010J10Rik ?
A) inactive

Q) What did this assay record as the result for GGACAACCAAGGAAGAAACTT against Fam205c ?
A) inactive

Q) // return assay outcome for GUUUCUCCAUGGAGUCAUUTT against Psmb5
A) inactive

Q) For this sequence, state the assay outcome: GGUUCUGGUUUAGAUGCUATT against H2aw
A) active

Q) Could you please tell me the result logged for GGCCUGUUUUGUACUUUUATT against Polr3gl in this assay?
A) inactive

Q) Check the results log: what was the call for GGAUUUGUCAUCCACUUCUTT against Sez6 ?
A) inactive

Q) What was the test verdict on GGAGCUCCUGUACGACUAUTT against Kmt5a ?
A) inactive

Q) Identify the outcome logged in this assay for the sequence shown: CCAUAUACCCUUGAAUUCCTT against Tmem185b
A) inactive

Q) Assay outcome for GGAAGCCUAGUUUUUUUAATT against Csnk2a1 : what was it?
A) active

Q) Per the assay record, what outcome was assigned to GCAUAGCAAUGAAAAUCUATT against Lrit2 ?
A) inactive

Q) How was GGCUCAGACCUGGAUACAUTT against Oas1e classified in this test?
A) active

Q) Could you please tell me the result logged for GGGAGAGAUCCUCAACAGGTT against Cdk5rap1 in this assay?
A) inactive

Q) Give the logged outcome of this assay for the following sequence: GGUUUGCCUAUUUUUUCUUTT against Trmt10c
A) inactive

Q) Per the records of this test, what outcome belongs to CCUGACAUUCUUUAAUCCATT against Synb ?
A) inactive

Q) # lookup: test call for GCUAAGUCGGAGCAGUUUUTT against Clba1
A) active

Q) Name the outcome recorded for CGGUGUACGAGUUAGAGAATT against Crybb3 in the assay.
A) inactive

Q) Check the results log: what was the call for GGAUUUCCUUGGUUCUUUUTT against Mylip ?
A) inactive

Q) Recorded test call requested for GGUUAAGAUUCCAGAGCCATT against Prune1
A) inactive

Q) Test call for this sequence, please: GGAGUGAGACAAUUCUCACTT against Sprr2k
A) inactive

Q) Assay outcome for GGUAUUUCUUUGUGGUGCUTT against Ptch2 : what was it?
A) inactive

Q) What call does the record list for GCCUAUCGAAAAGUCUUGGTT against Adcyap1 ?
A) inactive

Q) Dear all, I need the recorded test outcome for GCGGCGCAUGACUGAAAGATT against Chd8 , thank you.
A) inactive

Q) Recorded call for GGCGAAUGUUUACGAGAACTT against Sh2d1b2 ?
A) inactive

Q) # fetch the recorded call for GCUUGUUCGGGAAUCUUAUTT against Olfr292 here
A) inactive

Q) Recorded test outcome, item CCGCUCACUUCUUGAAUAUTT against Rnf125
A) inactive

Q) State the result this test recorded for GGUAUCAACAUCACGAUUCTT against Mrgpra1 .
A) inactive

Q) Which outcome was assigned to GGCAGCUAUUGCUCUGGAATT against 5730596B20Rik in this test?
A) inactive

Q) Call for entry GCCAAGUGAUUGAAAAAACTT against Lnpk :
A) inactive

Q) Answer briefly: the call reported for CCAGCAUCUACUGUCUGACTT against Sstr1 in this assay.
A) active

Q) GET /call?item= CCGAAAGGCUGGUACAUUCTT against Kin returns the recorded outcome of this test.
A) inactive

Q) GET /call?item= GGCCAACAAUAUAAAAGACTT against Pus3 returns the recorded outcome of this test.
A) inactive

Q) Dear all, I need the recorded test outcome for GGAAAGGCUCAAUGAGAGCTT against Nipa2 , thank you.
A) active

Q) Query: recorded result category for GGCCUAAACACGGUUUUCATT against Ppm1n in this test
A) active

Q) Fill in: this test's call for GGCUGUGAGAUAGAUCUAATT against Arhgef40 is ___
A) active

Q) What did this assay record as the result for GGUACAGCUUAUGGAUUAATT against Pdgfra ?
A) inactive

Q) Which outcome was assigned to CCUCGUCGAGUGGAAAAUUTT against Pxylp1 in this test?
A) inactive

Q) Hi team, can someone confirm the assay call for GGGCAAACCCAAGACCUUATT against Sgms2 ?
A) inactive

Q) Please let me know the test result on file for GCUGGAAUACGUUGAUAUATT against Kcnab3 .
A) active

Q) Recorded test call requested for CCAAGCCUAAUAAAAUUCCTT against Lsr
A) inactive

Q) State the result this test recorded for GGUUUAACUUUAAUGAUGGTT against Cacna1e .
A) inactive

Q) Hello, I am checking results. What call was entered for GGACCAGUUAAAGUCACCATT against Atp4b ?
A) inactive

Q) Dear all, I need the recorded test outcome for GCUUGAUCGCUUUCAACUCTT against Coro7 , thank you.
A) inactive

* * *

experiment: Components of the Cytosolic LPS Sensing Pathway: Gene Identification via Genome-wide siRNA Screen; details: RAW264.7 macrophages, IL-1a HTRF, actives lie on both sides, screened at 100 nM (by protocol), cells primed 5 h with Pam3CSK4 first;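 further: robust z of the log signal after scaling to non-targeting control siRNA wells of the plate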
Out of some 53,000 sequences screened, about 3,700 (7%) were called active. This excerpt belongs to a sample that is enriched for actives.
Kindly supply the reported z-score values for the records listed here.

Q) Give the reported value of z-score for this record: GGUCGUGUACUCGUUCAGUTT against Pcdh10
A) 2.04 (active)

Q) # return recorded z-score for entry GGAAGAAAUGAUGAAUGACTT against Chmp2a
A) 2.36 (active)

Q) Name the recorded z-score of the item GCAGAACCGCCAACCAACATT against Smarcc2 in your answer.
A) -2.03 (active)

Q) Retrieve z-score measured for CCUGAUGGAUGAUGAAUCATT against Trap1a and print it.
A) -1.42 (inactive)

Q) Consider the sequence GGGAGCAAACGAGAAGAUATT against Gjd2 and give its recorded z-score.
A) 4.09 (active)

Q) Find the measured z-score of CGUGAACAGCUUUAAGGUGTT against Usp27x and report it.
A) 1.34 (inactive)

Q) Give the measured z-score for GGCUGGAUGUCAGAUUGCATT against Olfr1389
A) -1.38 (inactive)

Q) Identify z-score associated with the sequence GGAAUGACAAGAUUAUUGUTT against Ercc3
A) 0.157 (inactive)

Q) Read the entry GGAUACAGUUAAGAGAUAUTT against Xpr1 and write its reported z-score.
A) -1.34 (inactive)

Q) Using known records, supply z-score for GGUUGACCUGUGCUUUUCGTT against Arr3
A) -0.625 (inactive)

Q) Using known records, supply z-score for GGGUCAAAGAGAAAAAAGUTT against Hoxa13
A) -1.2 (inactive)

Q) Give z-score for GGCAUUCAAAAGGUAAAAUTT against Grid2
A) -0.515 (inactive)

Q) Item CCAGGAUUGAUUUAGAAAATT against BC107364 : provide z-score
A) 1.29 (inactive)

Q) Answer with reported z-score of GGUCAUAGCAUCUACGGCUTT against Gm4793
A) -0.11 (inactive)

Q) Answer with the recorded z-score for the sequence listed here: GGGUUUUCGGGAGAUCUGUTT against Ltbp4
A) -0.44 (inactive)

Q) Give z-score for GGGAGAAAAUUGGCUUAGATT against Dclre1b
A) 0.424 (inactive)

Q) Give reported z-score value for GCAAAACACACUGAUGGUGTT against Stx16
A) 0.835 (inactive)

Q) // Input: CCCACUUGUCUACAGCCUATT against Olfr1505 . Output its z-score only.
A) -2.65 (active)

Q) Specify measured z-score for CCUCCUAUUUGCUUCAUUUTT against Cytip .
A) -1.32 (inactive)

Q) Quote z-score reported for UUCAUUCAUAUGGACAGUUTT against Psg19 please.
A) 1.73 (inactive)

Q) Return z-score (reported value) for this sequence: GGAGUUGCCUCUGAAGACCTT against Ccm2l
A) 0.797 (inactive)

Q) Fill in reported z-score for this entry: GGAGUCCUUUAAGAUUAUATT against Pex13
A) 1.3 (inactive)

Q) Give recorded z-score. GGAAAAUGUCCGUAAAAGGTT against Dtx2
A) 0.196 (inactive)

Q) Specify reported z-score for the sequence shown: GGCAUGGAUUGGUGAGAUUTT against 9330175E14Rik
A) -0.576 (inactive)

Q) Please report the measured z-score for GGGUUUCCACAGACAAUGUTT against V1rg10
A) -0.837 (inactive)

Q) Using the record for GGUGGUCUCCUACAAUGCCTT against Olfr1451 , state its measured z-score.
A) 2.3 (active)

Q) Give the value of z-score reported for the following: GGCCAUACACCUGUGACAUTT against Osr2
A) 1.37 (inactive)

Q) Supply recorded z-score for GGUAUAGCAAUUUCUACAATT against Chrna2 here.
A) -0.174 (inactive)

Q) Return z-score (reported value) for this sequence: GGAAGACCUAAACAACGGCTT against Dusp10
A) -1.55 (inactive)

Q) Consider the sequence GCCAGAGUGUCGAAUAUCATT against Dll4 . State its measured z-score.
A) -0.417 (inactive)

Q) State its z-score for this sequence: GGAUCUCCAGAGCAGAAAATT against Nckap5
A) -1.64 (inactive)

Q) Return reported z-score. Input sequence: GGCUAAAUGCCGAUGUACUTT against Gapvd1
A) 2.08 (active)

Q) Specify measured z-score for GGCUUGUUUCCAAAAUAGGTT against Rflna .
A) 0.327 (inactive)

Q) Output z-score of GGCACGUGAUAAAGGGUUCTT against Pcdha7
A) 2.56 (active)

Q) Look up and report measured z-score for this entry: GAGUGUCUUGAACACAGCCTT against Olfr635
A) -0.0711 (inactive)

Q) Tell me measured z-score for GGAUUUUCUCUAUGCAGGCTT against Dcaf15 please.
A) 0.0862 (inactive)

Q) Identify z-score associated with the sequence GCCAGUUCAUACAAGAGGGTT against Zfp946
A) 0.623 (inactive)

Q) Note z-score for the sequence shown: GGUAUACUAACUUUUAAGGTT against Fmo1
A) -0.228 (inactive)

Q) Return value of z-score for input GGCUAAUGGACAAAAAAUUTT against Pacrgl , no commentary.
A) 0.28 (inactive)

Q) Kindly indicate its recorded z-score. Item: CCUGGUGUUCGUGUACCUGTT against Cdk5r2
A) 3.1 (active)

Q) Return value of z-score for input GGGAAUGAAAUGUUCUUCGTT against Ttl , no commentary.
A) -0.121 (inactive)

Q) Query z-score for GCAAGAAGUAUUUUCAGUATT against Galnt4
A) 1.34 (inactive)

Q) Report z-score for GGUUUCUUUGCCUACCCAGTT against Prrc2b
A) -1.13 (inactive)

Q) Note down z-score recorded for GCCUGUAGCAGAGAACUUUTT against Tmem59l
A) 1.1 (inactive)

Q) Return z-score for the following sequence: GGAACUUGAACUAAAAAUGTT against Eaf1
A) 2.5 (active)

Q) Please list z-score recorded for the sequence GUUAUUUGUAUGGUGAGAUTT against Hpcal1
A) -1.06 (inactive)

Q) Indicate its recorded z-score; the sequence in question is GGGAGAUGAUUAGUUCAUUTT against Mad1l1
A) 0.654 (inactive)

Q) Output z-score of CGUAAUCUUCAUCUUAGUATT against Olfr613
A) 0.601 (inactive)

Q) Dear colleague, please send me the reported z-score for CCAUGACAAUGAAUAUCCUTT against Ms4a19 when you can.
A) -1.24 (inactive)

Q) State its z-score for this sequence: GGAUGUGGUUCAGAAGGCCTT against Stab1
A) -0.29 (inactive)

# credit: PubChem BioAssay AID1508600
